Data origin, for the record: a melting point compilation (Tetko et al.; mined from patent text by program, amines drawn as free bases though some values may be those of a salt)

A collection of molecules and their measured melting point

{"molecule": "CCCCCCCCOc1cc2cc(C(=O)OC)c(C(=O)OC)c(-c3ccncc3)c2cc1OC", "result": "124 to 126 °C"}

Turning to the following molecule.
Please report the recorded melting point for `COC(=O)c1cccc2[nH]c3cc4c(c(OC)c3c12)CCCC4` . 194 to 196 °C

---

Catalogue of molecules with associated melting point

Known results for molecules:
{"molecule": "Cc1oc(C(C)(C)C)nc1CCl", "melting point": "41 to 44 °C"}
{"molecule": "CN(CC(O)c1cccc(O)c1)C(=O)c1cnc(N(C)C)nc1-c1ccccc1 (stereo not given)", "melting point": "79 to 81 °C"}
{"molecule": "CC(C)(C)C(=O)NCc1cccs1", "melting point": "64 to 65 °C"}
{"molecule": "CCOC(=O)c1c(N2CCN(C(=O)c3cccs3)CC2)c2cnccc2n(Cc2ccc(F)cc2)c1=O", "melting point": "132 °C"}

// next item, melting point requested
Fill blank: measured melting point of the molecule CCCCc1c(C)c(NC(=O)CC(C)(C)C)c(C)c2c1OCC2c1ccc(C(C)C)cc1 (stereo not given) is ____. 149 to 151 °C
